System name: ERK5 (MAPK7) (Homo sapiens, UniProt Q13164)
Sequence (Q13164 2-816): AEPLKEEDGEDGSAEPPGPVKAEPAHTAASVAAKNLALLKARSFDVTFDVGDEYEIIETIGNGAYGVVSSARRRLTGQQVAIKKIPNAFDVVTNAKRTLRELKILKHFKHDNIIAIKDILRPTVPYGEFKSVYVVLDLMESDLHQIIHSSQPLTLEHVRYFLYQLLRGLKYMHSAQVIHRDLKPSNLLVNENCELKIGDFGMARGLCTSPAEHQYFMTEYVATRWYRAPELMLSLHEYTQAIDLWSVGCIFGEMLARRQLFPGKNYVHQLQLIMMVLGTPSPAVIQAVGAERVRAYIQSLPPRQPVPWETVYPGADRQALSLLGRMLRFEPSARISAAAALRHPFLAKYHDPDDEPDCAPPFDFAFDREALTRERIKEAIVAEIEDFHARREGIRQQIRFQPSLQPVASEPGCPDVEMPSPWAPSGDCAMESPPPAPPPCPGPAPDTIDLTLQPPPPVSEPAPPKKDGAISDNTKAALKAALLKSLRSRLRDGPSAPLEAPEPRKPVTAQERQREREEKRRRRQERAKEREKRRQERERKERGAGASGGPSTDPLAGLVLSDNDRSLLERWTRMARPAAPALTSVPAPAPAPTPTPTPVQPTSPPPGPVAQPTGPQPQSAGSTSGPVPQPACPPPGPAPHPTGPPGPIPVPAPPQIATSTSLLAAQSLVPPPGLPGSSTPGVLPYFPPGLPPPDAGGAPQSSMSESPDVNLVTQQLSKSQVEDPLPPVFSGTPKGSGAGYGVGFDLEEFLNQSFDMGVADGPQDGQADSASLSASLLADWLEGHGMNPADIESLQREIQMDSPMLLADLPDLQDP

[
  {
    "Chemical structure": "CC(C)CCOc1cc(C(=O)C[n+]2cn(CCC(C)C)c3ccccc32)c(OCCC(C)C)c2ccccc12",
    "IC50 (nM)": 910
  }
]
